- systemUnderTest: GlHsp90 (trans-spliced full-length heat shock protein 90) (Giardia duodenalis, UniProt A0A644F9H9)
- Construct: gene GL50803_0098054; full length Hsp90, N terminus 6x His-tag (Methods text says purified HspN)
- Sequence (A0A644F9H9 entry or part of it): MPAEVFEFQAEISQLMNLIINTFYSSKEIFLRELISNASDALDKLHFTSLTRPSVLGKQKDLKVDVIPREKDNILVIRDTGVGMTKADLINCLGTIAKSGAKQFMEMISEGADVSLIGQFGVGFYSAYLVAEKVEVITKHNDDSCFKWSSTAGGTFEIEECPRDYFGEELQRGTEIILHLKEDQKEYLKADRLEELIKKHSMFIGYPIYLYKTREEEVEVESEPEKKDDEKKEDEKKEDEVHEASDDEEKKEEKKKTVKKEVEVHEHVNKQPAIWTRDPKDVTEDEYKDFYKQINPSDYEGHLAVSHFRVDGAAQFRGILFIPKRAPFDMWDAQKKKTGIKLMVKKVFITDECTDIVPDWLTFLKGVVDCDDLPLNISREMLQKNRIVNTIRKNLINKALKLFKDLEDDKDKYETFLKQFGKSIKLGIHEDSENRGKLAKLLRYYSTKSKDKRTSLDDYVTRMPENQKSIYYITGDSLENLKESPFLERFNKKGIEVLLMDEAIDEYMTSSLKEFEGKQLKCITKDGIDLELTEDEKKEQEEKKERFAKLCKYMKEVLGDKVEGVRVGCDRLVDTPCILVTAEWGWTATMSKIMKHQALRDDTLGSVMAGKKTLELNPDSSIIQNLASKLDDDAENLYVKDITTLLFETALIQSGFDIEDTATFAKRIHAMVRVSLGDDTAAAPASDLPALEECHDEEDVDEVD
- methodNotes: intrinsic fluorescence quenching; also inhibits the purified ATPase (EC50 […])
- Type: binding
pKd: −log10 of the molar value.
propertyName: pKd

compound	result
C=CCNC1=C2C[C@@H](C)C[C@H](OC)[C@H](O)[C@@H](C)/C=C(\C)[C@H](OC(N)=O)[C@@H](OC)/C=C\C=C(/C)C(=O)NC(=CC1=O)C2=O [17AAG]	4.77

====

- systemUnderTest: GlHsp90 (trans-spliced full-length heat shock protein 90) (Giardia duodenalis)
- Construct: gene GL50803_0098054; full length Hsp90, N terminus 6x His-tag (Methods text says purified HspN)
- methodNotes: intrinsic fluorescence quenching; also ATPase by TLC with radiolabelled ATP (Km […])
- Format: binding
pKd: −log10 of the molar value.

smilesInput	systemUnderTest	pKd
Nc1ncnc2c1ncn2[C@@H]1O[C@H](COP(=O)(O)OP(=O)(O)OP(=O)(O)O)[C@@H](O)[C@H]1O	GlHsp90 (trans-spliced full-length heat shock protein 90) (Giardia duodenalis)	3.20
